# test summary: Intrinsic clearance in rat liver microsomes at 5 uM after 60 mins
# Type: ADME, Microsome
# experimental conditions: read-out: CLH
assay metric: microsomal CLint at 5 µM (µL/min/mg)
A number alone suffices; assume µL/min/mg.

In: Quick one: give measured microsomal CLint at 5 µM for Cc1cccc(Nc2ccccc2COCc2cc3cc(F)ccc3n2S(C)(=O)=O)c1C
Out: 25.2

---

# experimental system: UniProtKB Q07343
# test summary: Inhibition of recombinant human PDE4B expressed in baculovirus infected Sf9 cells at 10 uM using [3H] cAMP as substrate after 30 min by scintillation proximity assay relative to control
Class boundaries, taken from values of inhibition, are as follows: b0: < 30%; b1: ≥ 30% and < 40%; b2: ≥ 40%

Cc1cccc(Nc2ccccc2COCc2cc3ccccc3n2S(C)(=O)=O)c1C ... b2
Cc1ccc(S(=O)(=O)n2c(COCc3ccccc3Nc3cccc(C)c3C)cc3cc(F)ccc32)cc1 ... b1
Cc1ccc(S(=O)(=O)n2c(COCc3ccccc3Nc3cccc(C)c3C)cc3cc(Cl)ccc32)cc1 ... b0
Cc1cccc(Nc2ccccc2COCc2cc3cc(Cl)ccc3n2S(C)(=O)=O)c1C ... b2
Cc1ccc(S(=O)(=O)n2c(COCc3ccccc3Nc3cccc(C)c3C)cc3cc(C)cc(C)c32)cc1 ... b0
Cc1ccc(S(=O)(=O)n2c(COCc3ccccc3Nc3cccc(C)c3C)cc3cc(C)ccc32)cc1 ... b1

In: Input Cc1cc(C)c2c(c1)cc(COCc1ccccc1Nc1cccc(C)c1C)n2S(C)(=O)=O ; output its category
Out: b1

---

compounds and their reported inhibition
# experimental system: 3',5'-cyclic-AMP phosphodiesterase 4B (Homo sapiens)
# test summary: Inhibition of recombinant human PDE4B expressed in baculovirus infected Sf9 cells at 10 uM using [3H] cAMP as substrate after 30 min by scintillation proximity assay relative to control
A number alone suffices; assume %.

// solved cases for inhibition follow
Cc1ccc(S(=O)(=O)n2c(COCc3ccccc3Nc3cccc(C)c3C)cc3cc(Br)ccc32)cc1 ... 24.6
Cc1ccc2c(c1)cc(COCc1ccccc1Nc1cccc(C)c1C)n2S(C)(=O)=O ... 55.1
Cc1ccc(S(=O)(=O)n2c(COCc3ccccc3Nc3cccc(C)c3C)cc3ccccc32)cc1 ... 39.9
CCc1ccc2c(c1)cc(COCc1ccccc1Nc1cccc(C)c1C)n2S(=O)(=O)c1ccc(C)cc1 ... 32.1

In: Quick one: give measured inhibition for Cc1cccc(Nc2ccccc2COCc2cc3cc(F)ccc3n2S(C)(=O)=O)c1C
Out: 68

---

# test summary: Metabolic stability in rat liver microsomes assessed as parent compound remaining at 5 uM after 60 mins
# Assay type: ADME, Microsome
# experimental conditions: read-out: Stability
assay metric: remaining at 1 h, 5 µM

In: Quick one: give measured remaining at 1 h, 5 µM for Cc1cccc(Nc2ccccc2COCc2cc3cc(F)ccc3n2S(C)(=O)=O)c1C
Out: 64.9%

---

# experimental system: 3',5'-cyclic-AMP phosphodiesterase 4B (Homo sapiens, UniProt Q07343)
# Sequence (Q07343 whole entry): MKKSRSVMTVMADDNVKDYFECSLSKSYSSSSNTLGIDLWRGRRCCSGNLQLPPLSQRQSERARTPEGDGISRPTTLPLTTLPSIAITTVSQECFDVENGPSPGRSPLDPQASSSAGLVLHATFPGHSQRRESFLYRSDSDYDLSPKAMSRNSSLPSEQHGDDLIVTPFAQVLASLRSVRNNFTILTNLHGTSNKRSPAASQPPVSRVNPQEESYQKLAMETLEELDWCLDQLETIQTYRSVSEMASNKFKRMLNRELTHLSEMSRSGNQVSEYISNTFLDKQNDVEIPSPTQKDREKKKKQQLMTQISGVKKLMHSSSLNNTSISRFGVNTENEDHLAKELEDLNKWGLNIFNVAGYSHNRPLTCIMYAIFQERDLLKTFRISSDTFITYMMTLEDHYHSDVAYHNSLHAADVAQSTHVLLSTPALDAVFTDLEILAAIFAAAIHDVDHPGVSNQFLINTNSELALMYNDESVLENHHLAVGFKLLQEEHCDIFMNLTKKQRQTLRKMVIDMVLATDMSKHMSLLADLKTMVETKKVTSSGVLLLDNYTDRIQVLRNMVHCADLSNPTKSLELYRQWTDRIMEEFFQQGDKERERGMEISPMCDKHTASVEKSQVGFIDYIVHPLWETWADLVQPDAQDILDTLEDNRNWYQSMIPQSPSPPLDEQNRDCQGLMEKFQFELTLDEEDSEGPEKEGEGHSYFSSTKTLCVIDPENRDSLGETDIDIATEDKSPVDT
# test summary: Inhibition of recombinant human PDE4B expressed in baculovirus infected Sf9 cells using [3H] cAMP as substrate after 30 min by scintillation proximity assay
compounds and their reported IC50
Answer with the figure and its unit, nothing else.

// solved cases for IC50 follow
Cc1ccc2c(c1)cc(COCc1ccccc1Nc1cccc(C)c1C)n2S(C)(=O)=O ... 4130 nM
Cc1cccc(Nc2ccccc2COCc2cc3cc(Cl)ccc3n2S(C)(=O)=O)c1C ... 4480 nM
Cc1cccc(Nc2ccccc2COCc2cc3ccccc3n2S(C)(=O)=O)c1C ... 1760 nM

Here is another compound to look at.
In: Quick one: give measured IC50 for Cc1cccc(Nc2ccccc2COCc2cc3cc(F)ccc3n2S(C)(=O)=O)c1C
Out: 1340 nM
